assay: NCI Yeast Anticancer Drug Screen. Data for the rad50 strain (AID 155);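 further: 0% = growth of vehicle-only cultures of the same strain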; conditions: S. cerevisiae rad50 strain growth inhibition; at 50.0 µM (retest, dose inferred, filed as 5.0)
The panel holds about 79,000 compounds, 15% with a hit somewhere; the sample as a whole holds those more often. Calls of active or inactive are those of the source. No stated cut-off is given here; in the data, active means growth inhibition above about 70%; inactive means the rest.
Tick one outcome: 1 (active), 0 (inactive)

• O=C1OC(c2ccccc2)N/C1=C\c1ccc2c(c1)OCO2 (stereo not given) = 0
• CCCCCCCNC1CCCc2cc(OC)ccc21 (stereo not given) = 0
• C[C@H]1CC[C@@H]2[C@@H](C)[C@H]3[C@H](C[C@H]4[C@@H]5CC=C6C[C@@H](O)CC[C@]6(C)[C@H]5CC[C@]34C)N2C1 = 1
• COc1ccc2c(c1)OC(c1ccccc1O)CC2=O (stereo not given) = 0

Consider now this further compound.
IN: Please let me know the test result on file for O=C1c2cc(Br)cc(Br)c2NCCC1(Br)Br .
OUT: 1

###

assay: NCI Yeast Anticancer Drug Screen. Data for the mlh1 rad18 strain (AID 175); settings: S. cerevisiae mlh1 rad18 strain growth inhibition; at 5.0 µM (retest, dose inferred, filed as 0.5); active compounds read high
The panel holds about 79,000 compounds, 15% with a hit somewhere; the sample as a whole holds those more often.
Given measured growth inhibition, output Y if it is greater than or equal to 30% and N if not.

Some solved entries appear below for comparison.
- Cc1nc(Nc2ccccc2)sc1C(=O)NNc1ccc([N+](=O)[O-])cc1[N+](=O)[O-]: N
- Cc1ccnc2[nH]c3ccccc3c(=O)c12: Y
- CC(C)c1ccc2c(c1)CCC1C(C)(CN)CCCC21C (stereo not drawn): Y
- CCCCOC(=O)C(C)OC(=O)NNc1ccccc1 (stereo not drawn): N

IN: Threshold query (growth inhibition >= 30%) on O=C(CCl)N(Cc1ccccc1)Cc1ccccc1
OUT: N

IN: Threshold query (growth inhibition >= 30%) on CCC[CH2][Sn]([CH2]CCC)([O]C(=O)c1cc(F)cc(F)c1)[O][Sn]([CH2]CCC)([CH2]CCC)[O]C(=O)c1cc(F)cc(F)c1
OUT: Y

###

Known growth inhibition of a selection of molecules
Assay: NCI Yeast Anticancer Drug Screen. Data for the rad50 strain (AID 155);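 further: 0% = growth of vehicle-only cultures of the same strain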
Conditions: S. cerevisiae rad50 strain growth inhibition; at 5.0 µM (retest, dose inferred, filed as 0.5); active compounds read high
Method: Growth inhibition of yeast strains with defined genetic alterations is measured as a screen for potential anti-cancer activity. Selected strains with alterations in DNA damage repair or cell cycle control were exposed to compounds and growth inhibition was measured relative to vehicle treated controls. The strain used in this assay is rad50
About 79,000 compounds went through this panel and 15% of them were active in at least one assay; those are over-represented in the sample as a whole.
Respond with the bare value in %.

The cases that follow already have their growth inhibition on record.
• COc1ccc(CCCCC(=O)O)cc1O = -155
• O=[N+]([O-])c1ccc(/C=C/[n+]2ccc3ccccc3c2)o1 = 29
• CCCC(C)OC(=O)Nc1cccc(Cl)c1 (centres undefined) = -15

Here's the next entry for you.
IN: Supply measured growth inhibition of CCCCCCCCCCCC(=O)NC(CCC(=O)O)C(=O)O (centres undefined) in your reply.
OUT: 4

###

test: NCI Yeast Anticancer Drug Screen. Data for the cln2 rad14 strain (AID 165);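 further: 0% = growth equal to vehicle treated cultures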; conditions: S. cerevisiae cln2 rad14 strain, at 50.0 µM, active compounds read high
About 79,000 compounds went through this panel and 15% of them were active in at least one assay; those are over-represented in the sample as a whole.
Known growth inhibition of a selection of compounds
Respond with the bare value in %.

* CCN(CC)CCNc1ccc2ncn3c4c(OC)ccc(=O)c4c(O)c1c23 | -1.95
* CCOC(=O)c1c(C)[nH]c(C(=O)C(N)C(=O)OCC)c1C (stereo not drawn) | 99.5

IN: Supply measured growth inhibition of COc1ccc(/C=N/Nc2cc(C)nc3cc4c(cc23)OCO4)c2ccccc12 in your reply.
OUT: 57.6
